Reference for the values: paper PMC4552634

# System: P. falciparum stage V gametocytes
# Set-up: BacTiter-Glo ATP luminescence viability of purified stage V gametocytes in 384-well plates, per cent inhibition versus DMSO
# condition summary: 48 h, 5 µM; inhibitor
Out of some 13,000 compounds screened, about 3,200 (25%) showed an effect of 50% or more. The list shows a part of the results.
observed property: % Inhibition (%)
Return type: number; implicit unit %.

Examples with answers:
compound: CC(C)(C)c1ccc(S(=O)(=O)Nc2ccccc2N2CCOCC2)cc1 [TCMDC-124560]
measured result: 22.48
--
compound: O=C(Nc1ccc([N+](=O)[O-])cc1)c1nn(-c2ccccc2)cc1N=Cc1cccc(O)c1 [TCMDC-124108]
measured result: -28.07
--
compound: COc1ccc(Cc2nc(N=C(N)Nc3ccccc3)ccc2OC)cc1 [TCMDC-138959]
measured result: 88.7
--
compound: Cc1ccccc1-c1cc(=O)c2cc(NC(=O)c3cccs3)ccc2o1 [TCMDC-124947]
measured result: 11.18

With those in mind, consider the next compound.
The compound identified as COc1ccc(CCN(C)CCOc2ccc(NC(=O)c3cccc4cc5ccccc5nc34)cc2)cc1OC [TCMDC-132112] registered its % Inhibition at -28.68

###

# Tested on: P. falciparum stage V gametocytes
# Set-up: BacTiter-Glo ATP luminescence viability of purified stage V gametocytes in 384-well plates, per cent inhibition versus DMSO
# condition summary: 48 h, 5 µM; inhibitor
Screen size: about 13,000 compounds; about 3,200 (25%) showed an effect of 50% or more. The list shows a part of the results.
Property: % Inhibition; scope: individual molecules
State the result as a value with its unit after it.

% Inhibition for O=C(Nc1ccc(-c2nc3ccccc3[nH]2)cc1)C1CCCN(CC2CC2)C1 (stereo not shown) is -0.844%

Data point: Cc1c(-c2cccc(C(C)(C)NCCCN3CCCCC3)c2)cnc(N)c1C ; % Inhibition = 76.27%

So, COc1cc(Cc2cnc(N)nc2N)cc(OCC(C)(C)C(=O)O)c1OC ? Its % Inhibition was -9.297%

Entry CCNc1cc(C(=O)N[C@@H](Cc2ccccc2)[C@H](O)CNC(C)(C)Cc2cccc(OC)c2)cc(N2CCCC2=O)c1 — recorded % Inhibition = 1.402%

###

# System: P. falciparum stage V gametocytes
# Parameters: BacTiter-Glo ATP luminescence viability of purified stage V gametocytes in 384-well plates, per cent inhibition versus DMSO
# condition summary: 48 h, 5 µM; inhibitor
Hit rate of the full screen: of about 13,000 compounds, about 3,200 (25%) showed an effect of 50% or more. Some of the results follow.
observed property: % Inhibition (%)
Your answer should be a plain number; it is taken to be in %.

The measured % Inhibition associated with COc1cc2c(cc1S(=O)(=O)c1ccc(NC(=O)Nc3ccc(F)cc3)cc1)CCN(C)CC2 [TCMDC-141793] reads 32.2

###

# Test system: P. falciparum stage V gametocytes
# Parameters: BacTiter-Glo ATP luminescence viability of purified stage V gametocytes in 384-well plates, per cent inhibition versus DMSO
# condition summary: 48 h, 5 µM; inhibitor
Out of some 13,000 compounds screened, about 3,200 (25%) showed an effect of 50% or more. Some of the results follow.
observed property: % Inhibition (%)
Record the value in %, omitting the unit from your answer.

molecule: C[C@@H](CC1CCCCC1)NCc1cccc(NS(=O)(=O)c2ccc(O)c(-c3ccno3)c2)c1 [TCMDC-141485]
% Inhibition / %: 41.65

Pending molecule:
Per the reported P. falciparum stage V gametocytes data, Cc1ncsc1CCN1C(=O)CC2(C1=O)C(=O)N(Cc1ccccc1)c1ccc(Cl)cc12 (stereo not drawn) [TCMDC-136701] has % Inhibition of 2.069

###

# Test system: P. falciparum stage V gametocytes
# Parameters: BacTiter-Glo ATP luminescence viability of purified stage V gametocytes in 384-well plates, per cent inhibition versus DMSO
# condition summary: 48 h, 5 µM; inhibitor
Among all 13,000 compounds or so, about 3,200 (25%) showed an effect of 50% or more. The list shows a part of the results.
observed property: % Inhibition (%)
# number only, unit % dropped from output

Answered examples (2):
molecule: N=C(N)NN=CC(=O)Nc1cc([N+](=O)[O-])cc([N+](=O)[O-])c1 [TCMDC-137446]
observed property: % Inhibition
output unit: %
measured result: 15.96
--
molecule: CCOC(=O)c1[nH]c(-c2ccc(-c3ccccc3)cc2)nc1N [TCMDC-131797]
observed property: % Inhibition
output unit: %
measured result: -4.943

Recorded result, CN1CCN(c2ccnc3ccc(NC(=O)Cc4ccc5ccccc5c4)cc23)CC1 [TCMDC-139351] , % Inhibition: 4.671

###

Below, each of the compounds is paired with its reported % Inhibition value.
# Test system: P. falciparum stage V gametocytes
# Parameters: BacTiter-Glo ATP luminescence viability of purified stage V gametocytes in 384-well plates, per cent inhibition versus DMSO
# condition summary: 48 h, 5 µM; inhibitor
About 3,200 (25%) of roughly 13,000 compounds showed an effect of 50% or more. Some of the results follow.
Write it as a number; the unit % goes unstated.

Recorded result, Cc1ccc(C(O)CNc2ccnc(Nc3cccc(-c4csc(C)n4)c3)n2)cc1 (stereo not drawn) , % Inhibition: 6.544

###

# Tested on: P. falciparum stage V gametocytes
# Parameters: BacTiter-Glo ATP luminescence viability of purified stage V gametocytes in 384-well plates, per cent inhibition versus DMSO
# condition summary: 48 h, 5 µM; inhibitor
Hit rate of the full screen: of about 13,000 compounds, about 3,200 (25%) showed an effect of 50% or more. The list shows a part of the results.
observed property: % Inhibition (%)
API: value field is a number in %; no unit string.

Completed entries (count: 3):
compound: NC1CCCN(Cc2ccc(-c3cccc(-c4nc5ccccc5[nH]4)c3)cc2)C1 (stereo not shown)
% Inhibition (%): 58.58
//
compound: Fc1ccc(CNc2ccc3ncc(-c4cccnc4)n3n2)cc1
% Inhibition (%): 19.94
//
compound: CCCc1ccc(Cc2cnc3nc(N)nc(N)c3c2C)cc1
% Inhibition (%): 5.48

Just so you know, measured % Inhibition for OC1CCCN(Cc2ccc(-c3cccc(-c4nc5ccccc5[nH]4)c3)cc2)C1 (stereo not shown) came out at -1.76

###

List of % Inhibition values.
# Test system: P. falciparum stage V gametocytes
# Set-up: BacTiter-Glo ATP luminescence viability of purified stage V gametocytes in 384-well plates, per cent inhibition versus DMSO
# condition summary: 48 h, 5 µM; inhibitor
Among all 13,000 compounds or so, about 3,200 (25%) showed an effect of 50% or more. The list shows a part of the results.
Phrase the answer as number then unit, nothing more needed.

Past entries and their recorded results:
molecule: Nc1nc(N)c2c(ccc3c2ccn3C2CCCCC2)n1
% Inhibition: 105.4%

molecule: O=C(O)C1CC(=O)N(c2ccc(Cl)cc2)C1 (stereo not shown)
% Inhibition: 2.166%

molecule: CCN1CCN(CCCNc2c3ccc(Cl)cc3nc3ccc(OC)cc23)CC1
% Inhibition: 86.55%

molecule: CC1N=C(N)N=C(N)N1OCc1cccc2ccccc12 (stereo not shown)
% Inhibition: 37.89%

molecule: O=C(Nc1cccc(-c2cccc(-c3nc4ccc(C(F)(F)F)cc4[nH]3)c2)c1)c1csnn1
% Inhibition: 10.49%

molecule: Cc1cccc2[nH]c(-c3cc(-c4cn[nH]c4)cnc3N)nc12
% Inhibition: -9.324%

molecule: CN(C)CCNC(=O)c1ccc2c(c1)n(C1CCN(S(=O)(=O)c3ccc(-c4ccccc4)cc3)CC1)c(=O)n2CC1CCCCC1
% Inhibition: 22.96%

molecule: CC(C)(C)CN1C(=O)C(c2ccccc2)(c2ccccc2)N=C1N
% Inhibition: 24.92%

molecule: COc1ccc(NS(=O)(=O)c2cc(NC(=O)Cn3ccccc3=O)ccc2N2CCCCC2)cc1
% Inhibition: 16.03%

molecule: O=C(/C=C/c1ccc(Cl)c(Cl)c1)NCCCCCN1CCC(NC(=O)Nc2ccc([N+](=O)[O-])cc2)CC1
% Inhibition: -1.594%

For the next question, use this molecule.
Form: item COc1ccc2nccc([C@@H](O)CN3CCC(NC(=O)C(c4cc5ccccc5o4)N4CCN(Cc5ccccc5)CC4)CC3)c2c1 (stereo partly shown) ; test system P. falciparum stage V gametocytes; % Inhibition: 30.33%

###

# System: P. falciparum stage V gametocytes
# Design: BacTiter-Glo ATP luminescence viability of purified stage V gametocytes in 384-well plates, per cent inhibition versus DMSO
# condition summary: 48 h, 5 µM; inhibitor
In all, about 13,000 compounds went through this assay and about 3,200 (25%) showed an effect of 50% or more. The list shows a part of the results.
Quick reference: % Inhibition of the listed items.
Number in %, nothing else.

Please review the following examples before continuing.
molecule: O=C(Nc1cccc(-c2cccc(-c3nc4ccc(F)cc4[nH]3)c2)c1)c1ccoc1
% Inhibition (%): 83.89
//
molecule: CC(=O)c1ccccc1OCCSc1nnc(Cc2cccs2)n1C1CCCCC1
% Inhibition (%): -19.51
//
molecule: O=C(Nc1ccc2c(c1)OCO2)NC1CCN(c2ccnc(Nc3ccc(F)cc3)n2)C1 (stereo not drawn)
% Inhibition (%): -89.44

According to the records, this molecule O=C(Nc1cccc(-c2ccc(-c3nc4ccc(F)cc4[nH]3)cc2)c1)c1ccoc1 displays % Inhibition of -15.37

# molecule O=C(Nc1cccc(-c2ccc(-c3nc4ccc(F)cc4[nH]3)cc2)c1)c1ccncc1 ; its % Inhibition = -22.91

Item: N#Cc1ccc2c(c1)CCN(CCC1CCC(NC(=O)Nc3ccnc4ccccc34)CC1)C2 (stereo not drawn) | % Inhibition: -21.63

% Inhibition reported for this molecule N#Cc1cccc(C(=O)Nc2ccc(-c3cccc(CN4CCC(O)CC4)c3)cc2)c1 : -58.6

The molecule listed as Cn1cnc(CCNC(=O)c2cccc(-c3cccc(-c4nc5cc(C(F)(F)F)ccc5[nH]4)c3)c2)c1 has a reported % Inhibition of 22.81

Looking up CC(C)(C)c1ccc(CN2CCCCC(NC(=O)c3cc(-c4ccccc4Cl)cs3)C2)cc1 (stereo not drawn) , I found its % Inhibition recorded as -60.63

Lab book: % Inhibition of CC(Sc1n[nH]c(-c2ccccc2Br)n1)C(=O)Nc1ccc(F)cc1 (stereo not drawn) noted as -62.46

For reference, reported % Inhibition for CCCN(Cc1ccc(OCC)cc1)Cc1cc(=O)c2cc(Cl)ccc2[nH]1 stands at 40.3

Looking up O=C(/C=C/c1ccc(Cl)c(Cl)c1)NCCCCCN1CCC(C(=O)Nc2ccc(Cl)cc2)CC1 , I see its % Inhibition listed as -21.25

Please fill in: % Inhibition reported for O=C(NCc1ccccc1[S+]([O-])c1ccccc1CO)C(F)(F)F (stereo not drawn) = 0.169

In plain terms, N#Cc1ccc(-c2ccc(C(=O)NCCCCN3CC=C(c4ccc5c(c4OCC4CC4)CCCC5)CC3)cc2)cc1 has a documented % Inhibition of 42.6

Record NC(N)=NC(=O)Nc1ccc(Cl)c(Cl)c1 , field % Inhibition: -4.176

So, Cc1ccc2c(c1)C1(CC(=O)N(CCc3scnc3C)C1=O)C(=O)N2Cc1ccccc1 (stereo not drawn) ? Its % Inhibition was 3.881

Measured % Inhibition, COc1ccc(Nc2ncc3c(-c4cccc(NC(=O)Cc5cccc(F)c5)c4)c[nH]c3n2)cc1OC : -27.44

Lookup result for CNC(=O)c1cc(Nc2nnc(-c3ccc(C)c(S(=O)(=O)NC4CCCCC4)c3)c3ccccc23)ccc1OC ; measured % Inhibition: -9.997
